Data origin: patent US4803266A

# Test system: blood platelet aggregation
# ASSAY REMARKS: Blood platelet aggregation inhibition in vitro in rabbit PRP, collagen induced
# Type: cell-based, male, New Zealand strain house rabbit
# CONDITIONS USED: Oryctolagus cuniculus, collagen final concentration 5 μg/ml, 37° C., 3 minutes preincubation, 50% inhibition of maximum aggregation rate

| MOLECULE | TARGET ENTITY | VALUE MODIFIER | IC50, µM |
| --- | --- | --- | --- |
| CCOC(=O)CC(=O)/C=C1/C(=O)N(c2ccccc2)C1c1ccccc1 (centres unmarked) [Compound 15] | blood platelet aggregation | = | 16.6 |
| COc1ccc(CN2C(=O)/C(=C/C(=O)c3ccc([N+](=O)[O-])cc3)C2c2ccccc2)cc1 (centres unmarked) [Compound 92] | blood platelet aggregation | = | 6.5 |
| O=C(/C=C1/C(=O)N(c2ccccc2)C1c1ccc(F)cc1)c1ccc(F)cc1 (centres unmarked) [Compound 76] | blood platelet aggregation | = | 10.5 |
| COc1ccc(C(=O)/C=C2/C(=O)N(c3ccccc3C)C2c2ccccc2)cc1 (centres unmarked) [Compound 16] | blood platelet aggregation | = | 4.1 |
| O=C(/C=C1/C(=O)N(Cc2ccc(Cl)cc2)C1c1ccccc1)c1ccc([N+](=O)[O-])cc1 (centres unmarked) [Compound 98] | blood platelet aggregation | = | 8.8 |
| CCC(=O)/C=C1/C(=O)N(c2ccccc2)C1c1ccccc1 (centres unmarked) [Compound 2] | blood platelet aggregation | = | 32 |
| O=C(/C=C1/C(=O)N(Cc2cccc(Cl)c2)C1c1ccccc1)c1ccc([N+](=O)[O-])cc1 (centres unmarked) [Compound 97] | blood platelet aggregation | = | 3.2 |
| COc1ccc(Cc2nccc3cc(OC)c(OC)cc23)cc1OC [papaverin, reference compound] | blood platelet aggregation | > | 100 |
